# experimental context: buffer; pH 7.4; 200.0 µM
quantity: solubility kinetic

>>> val("CCCCn1c(O)c(C(C)=Nc2ccc3c(c2)CCC3)c(=O)[nH]c1=O")
"< 0.2 µg/mL"
>>> val("COc1ccc(CN(C)CC(=O)NC(C)c2ccccc2)cc1OC (centres undefined)")
"> 51.4 µg/mL"
>>> val("CCC(NC(=O)c1ccncc1)c1ccccc1 (centres undefined)")
"> 36 µg/mL"
>>> val("CCOC(=O)c1cc2c(ccn2C)n1Cc1ccccc1Cl")
"< 0.3 µg/mL"
>>> val("Cc1ccc(OCC(=O)N2C(C)CCCC2C)c([N+](=O)[O-])n1 (centres undefined)")
"> 46.1 µg/mL"

INPUT: What solubility kinetic value was documented for this compound, `CN(C)/C=N/S(=O)(=O)c1ccc(Cl)c(Cl)c1` ?
OUTPUT: > 42.2 µg/mL

INPUT: What solubility kinetic value was documented for this compound, `CC(C)(C)c1ccc(C(=O)NC(=S)N2CCOCC2)cc1` ?
OUTPUT: > 46 µg/mL

INPUT: What solubility kinetic value was documented for this compound, `O=C(Cc1c(F)cccc1Cl)NCCN1CCOCC1` ?
OUTPUT: > 45.1 µg/mL

INPUT: What solubility kinetic value was documented for this compound, `CCN1C(C(=O)Nc2cc(C)on2)=C(O)c2ccccc2S1(=O)=O` ?
OUTPUT: > 52.4 µg/mL

Data provenance: PubChem BioAssay AID1996
